Known LogP of a selection of compounds
- assay protocol: physchem
- Assay type: physicochemical
Marks after values point to notes of the source that are not given here.
result type: LogP

[[record]]
compound = "N#Cc1ccc(C(F)(F)CNC(=O)c2cc(Cl)ncc2Oc2cccc(C(F)F)c2)c(Cl)c1"
result_type = "LogP"
measured_value = "3.87^[a]"

[[record]]
compound = "Cc1ccc(C(F)(F)CNC(=O)c2c(Oc3cccc(C(F)(F)F)c3)cnc(Cl)c2C2CC2)c(C)c1"
result_type = "LogP"
measured_value = "5.04^[a]"

[[record]]
compound = "O=C(NCC(F)c1ccc(Cl)cc1Cl)c1cc(Cl)nc(F)c1Oc1cccc(C(F)(F)F)c1 (racemic)"
result_type = "LogP"
measured_value = "5.08^[a]"

[[record]]
compound = "O=C(NCC(F)(F)c1ccc(Br)cc1Cl)c1cc(Cl)ncc1Oc1cccc(Cl)c1"
result_type = "LogP"
measured_value = "4.95^[a]"

[[record]]
compound = "Cc1ccc(CCNC(=O)c2cc(Cl)ncc2Oc2cccc(S(C)(=O)=O)c2)c(C)c1"
result_type = "LogP"
measured_value = "3.38^[a]"

[[record]]
compound = "O=C(NCCc1ccc2c(c1)OCCO2)c1cc(Cl)ncc1Oc1cccc(C(F)(F)F)c1"
result_type = "LogP"
measured_value = "3.84^[a]"

[[record]]
compound = "Cc1ccc(CCNC(=O)c2cc(Cl)nc(Cl)c2Oc2cccc(C(F)(F)F)c2)c(Cl)c1"
result_type = "LogP"
measured_value = "5.17^[a]"

[[record]]
compound = "COC(=O)Cc1cccc(Oc2cnc(Cl)cc2C(=O)NCCc2ccc(C)cc2C)c1"
result_type = "LogP"
measured_value = "4.17^[a]"

